# Test system: CAPAN-1 (Pancreatic Carcinoma)
# Experiment: Bliss excess, mean over the matrix (fraction); higher = more synergy
// reported Bliss excess per item
Readout type: Bliss excess

Molecule: O=C(c1cc(Cc2n[nH]c(=O)c3ccccc23)ccc1F)N1CCN(C(=O)C2CC2)CC1 [Olaparib] + CN(CC[C@H](CSC1=CC=CC=C1)NC2=C(C=C(C=C2)S(=O)(=O)NC(=O)C3=CC=C(C=C3)N4CCC(CC4)[C@H](C5=CC=CC=C5C6=CC=C(C=C6)Cl)O)S(=O)(=O)C(F)(F)F)CCO [AZD4320] (first compound max 10 µM, 7x7, partner max 1 µM)
Target of assay: CAPAN-1 (Pancreatic Carcinoma)
Readout type: Bliss excess
Observed result: -0.0347

Molecule: Cc1c2c(nn1C)CSCc1cc(n(C)n1)CSc1cc(c3ccccc3c1)OCCCc1c(C(=O)O)n(C)c3c-2c(Cl)ccc13 [AZD5991] + Cc1cc2ncnn2cc1Nc1ncc2c(n1)n(C1CCOCC1)c(=O)n2C [AZD7648] (first compound max 1 µM, 7x7, partner max 10 µM)
Target of assay: CAPAN-1 (Pancreatic Carcinoma)
Readout type: Bliss excess
Observed result: -0.0057

Molecule: C[C@@H](c1ccc2nccn2c1)n1nnc2ncc(-c3cnn(C)c3)nc21 [Savolitinib] + Cc1c2c(nn1C)CSCc1cc(n(C)n1)CSc1cc(c3ccccc3c1)OCCCc1c(C(=O)O)n(C)c3c-2c(Cl)ccc13 [AZD5991] (first compound max 1 µM, 7x7, partner max 1 µM)
Target of assay: CAPAN-1 (Pancreatic Carcinoma)
Readout type: Bliss excess
Observed result: -0.0702

Molecule: CC1(C)CCC(CN2CCN(c3ccc(C(=O)NS(=O)(=O)c4ccc(NCC5CCOCC5)c([N+](=O)[O-])c4)c(Oc4cnc5[nH]ccc5c4)c3)CC2)=C(c2ccc(Cl)cc2)C1 [Venetoclax] + C=CCn1c(=O)c2cnc(Nc3ccc(N4CCN(C)CC4)cc3)nc2n1-c1cccc(C(C)(C)O)n1 [AZD1775] (first compound max 1 µM, partner max 1 µM)
Target of assay: CAPAN-1 (Pancreatic Carcinoma)
Readout type: Bliss excess
Observed result: -0.0443

====

# Test system: NCI-H2461 (Mesothelioma)
# Experiment: Bliss excess, mean over the matrix (fraction); higher = more synergy
Readout type: Bliss excess

Molecule: O=C(c1cc(Cc2n[nH]c(=O)c3ccccc23)ccc1F)N1CCN(C(=O)C2CC2)CC1 [Olaparib] + CC1(C)CCC(CN2CCN(c3ccc(C(=O)NS(=O)(=O)c4ccc(NCC5CCOCC5)c([N+](=O)[O-])c4)c(Oc4cnc5[nH]ccc5c4)c3)CC2)=C(c2ccc(Cl)cc2)C1 [Venetoclax] (first compound max 10 µM, 7x7, partner max 1 µM)
Target of assay: NCI-H2461 (Mesothelioma)
Observed result: -0.0373
--
Molecule: Cn1cnc2c(F)c(Nc3ccc(Br)cc3Cl)c(C(=O)NOCCO)cc21 [Selumetinib] + CCN(CCO)CCCOc1ccc2c(Nc3cc(CC(=O)Nc4cccc(F)c4)[nH]n3)ncnc2c1 [AZD2811] (first compound max 10 µM, 7x7, partner max 1 µM)
Target of assay: NCI-H2461 (Mesothelioma)
Observed result: -0.0026
--
Molecule: Cc1cc2ncnn2cc1Nc1ncc2c(n1)n(C1CCOCC1)c(=O)n2C [AZD7648] + O=C(c1cc(Cc2n[nH]c(=O)c3ccccc23)ccc1F)N1CCN(C(=O)C2CC2)CC1 [Olaparib] (first compound max 10 µM, 7x7, partner max 10 µM)
Target of assay: NCI-H2461 (Mesothelioma)
Observed result: -0.0601
--
Molecule: NC1(C(=O)N[C@@H](CCO)c2ccc(Cl)cc2)CCN(c2ncnc3[nH]ccc23)CC1 [Capivasertib] + CC(C)n1c(=O)n(C)c2cnc3cc(F)c(-c4ccc(OCCCN5CCCCC5)nc4)cc3c21 [AZD1390] (first compound max 10 µM, 7x7, partner max 0.3 µM)
Target of assay: NCI-H2461 (Mesothelioma)
Observed result: -0.0579
--
Molecule: C=CCn1c(=O)c2cnc(Nc3ccc(N4CCN(C)CC4)cc3)nc2n1-c1cccc(C(C)(C)O)n1 [AZD1775] + O=C(c1cc(Cc2n[nH]c(=O)c3ccccc23)ccc1F)N1CCN(C(=O)C2CC2)CC1 [Olaparib] (first compound max 1 µM, partner max 10 µM)
Target of assay: NCI-H2461 (Mesothelioma)
Observed result: -0.0561
--
Molecule: CCc1c2c(nc3ccc(O)cc13)-c1cc3c(c(=O)n1C2)COC(=O)[C@]3(O)CC [SN-38] + O=C(c1cc(Cc2n[nH]c(=O)c3ccccc23)ccc1F)N1CCN(C(=O)C2CC2)CC1 [Olaparib] (first compound max 0.3 µM, 7x7, partner max 10 µM)
Target of assay: NCI-H2461 (Mesothelioma)
Observed result: 0.0234
--
Molecule: CC(=O)c1c(C)c2cnc(Nc3ccc(N4CCNCC4)cn3)nc2n(C2CCCC2)c1=O [Palbociclib] + Cc1c2c(nn1C)CSCc1cc(n(C)n1)CSc1cc(c3ccccc3c1)OCCCc1c(C(=O)O)n(C)c3c-2c(Cl)ccc13 [AZD5991] (first compound max 10 µM, 7x7, partner max 1 µM)
Target of assay: NCI-H2461 (Mesothelioma)
Observed result: -0.056

====

# System: SK-OV-3 (Ovarian Carcinoma)
# Experiment: combination Emax (second highest fraction inhibited in the dose matrix, 72 h); higher = more inhibition; extreme values may be limits of the assay
// reported combination Emax per item

Molecule: NC1(C(=O)N[C@@H](CCO)c2ccc(Cl)cc2)CCN(c2ncnc3[nH]ccc23)CC1 [Capivasertib] + C[C@@H]1COCCN1C2=NC(=NC(=C2)C3(CC3)[S@](=N)(=O)C)C4=C5C=CNC5=NC=C4 [AZD6738] (first compound max 10 µM, 7x7, partner max 10 µM)
combination Emax: 0.493
--
Molecule: CC(=O)c1c(C)c2cnc(Nc3ccc(N4CCNCC4)cn3)nc2n(C2CCCC2)c1=O [Palbociclib] + CC1(C)CCC(CN2CCN(c3ccc(C(=O)NS(=O)(=O)c4ccc(NCC5CCOCC5)c([N+](=O)[O-])c4)c(Oc4cnc5[nH]ccc5c4)c3)CC2)=C(c2ccc(Cl)cc2)C1 [Venetoclax] (first compound max 10 µM, 7x7, partner max 1 µM)
combination Emax: 0.144
--
Molecule: NC1(C(=O)N[C@@H](CCO)c2ccc(Cl)cc2)CCN(c2ncnc3[nH]ccc23)CC1 [Capivasertib] + CC(C)n1c(=O)n(C)c2cnc3cc(F)c(-c4ccc(OCCCN5CCCCC5)nc4)cc3c21 [AZD1390] (first compound max 10 µM, 7x7, partner max 0.3 µM)
combination Emax: 0.383
--
Molecule: Cc1cc2ncnn2cc1Nc1ncc2c(n1)n(C1CCOCC1)c(=O)n2C [AZD7648] + CN(C)CCCOc1ccc(-c2ccc3ncc4c(c3c2)n(C2CCOCC2)c(=O)n4C)cn1 [AZD0156] (first compound max 10 µM, 7x7, partner max 1 µM)
combination Emax: 0.403
--
Molecule: CN(C)CCCOc1ccc(-c2ccc3ncc4c(c3c2)n(C2CCOCC2)c(=O)n4C)cn1 [AZD0156] + CCN(CCO)CCCOc1ccc2c(Nc3cc(CC(=O)Nc4cccc(F)c4)[nH]n3)ncnc2c1 [AZD2811] (first compound max 1 µM, 7x7, partner max 1 µM)
combination Emax: 0.138
--
Molecule: CC1(C)CCC(CN2CCN(c3ccc(C(=O)NS(=O)(=O)c4ccc(NCC5CCOCC5)c([N+](=O)[O-])c4)c(Oc4cnc5[nH]ccc5c4)c3)CC2)=C(c2ccc(Cl)cc2)C1 [Venetoclax] + Cc1cc2ncnn2cc1Nc1ncc2c(n1)n(C1CCOCC1)c(=O)n2C [AZD7648] (first compound max 1 µM, 7x7, partner max 10 µM)
combination Emax: 0.353
--
Molecule: Cc1c2c(nn1C)CSCc1cc(n(C)n1)CSc1cc(c3ccccc3c1)OCCCc1c(C(=O)O)n(C)c3c-2c(Cl)ccc13 [AZD5991] + CS(=O)(=O)CCNCc1ccc(-c2ccc3ncnc(Nc4ccc(OCc5cccc(F)c5)c(Cl)c4)c3c2)o1 [Lapatinib] (first compound max 1 µM, 7x7, partner max 10 µM)
combination Emax: 0.347

====

# System: KARPAS-231 (B-Cell Non-Hodgkin's Lymphoma)
# Experiment: combination Emax (second highest fraction inhibited in the dose matrix, 72 h); higher = more inhibition; extreme values may be limits of the assay
// reported combination Emax per item
Readout type: combination Emax

Compound: NC1(C(=O)N[C@@H](CCO)c2ccc(Cl)cc2)CCN(c2ncnc3[nH]ccc23)CC1 [Capivasertib] + COc1nnc2ccc(N3CCC(c4ccc(OCCN5CCN(C)C(=O)[C@H]5C)cc4)CC3)nn12 [AZD5153] (first compound max 10 µM, 7x7, partner max 1 µM)
Target of assay: KARPAS-231 (B-Cell Non-Hodgkin's Lymphoma)
Readout type: combination Emax
Observed result: 0.229
//
Compound: COc1cccc(OCCCN)c1-c1cc(Nc2cnc(C#N)cn2)n[nH]1 [Prexasertib] + CCc1c2c(nc3ccc(O)cc13)-c1cc3c(c(=O)n1C2)COC(=O)[C@]3(O)CC [SN-38] (first compound max 1 µM, 7x7, partner max 0.3 µM)
Target of assay: KARPAS-231 (B-Cell Non-Hodgkin's Lymphoma)
Readout type: combination Emax
Observed result: 1
//
Compound: Cc1c2c(nn1C)CSCc1cc(n(C)n1)CSc1cc(c3ccccc3c1)OCCCc1c(C(=O)O)n(C)c3c-2c(Cl)ccc13 [AZD5991] + C[C@@H](Nc1cc(F)cc(F)c1)c1cc(C(=O)N(C)C)cc2c(=O)cc(N3CCOCC3)oc12 [AZD8186] (first compound max 1 µM, 7x7, partner max 3 µM)
Target of assay: KARPAS-231 (B-Cell Non-Hodgkin's Lymphoma)
Readout type: combination Emax
Observed result: 1
//
Compound: NC1(C(=O)N[C@@H](CCO)c2ccc(Cl)cc2)CCN(c2ncnc3[nH]ccc23)CC1 [Capivasertib] + CC(=O)c1c(C)c2cnc(Nc3ccc(N4CCNCC4)cn3)nc2n(C2CCCC2)c1=O [Palbociclib] (first compound max 10 µM, 7x7, partner max 10 µM)
Target of assay: KARPAS-231 (B-Cell Non-Hodgkin's Lymphoma)
Readout type: combination Emax
Observed result: 0.129
//
Compound: CC1(C)CCC(CN2CCN(c3ccc(C(=O)NS(=O)(=O)c4ccc(NCC5CCOCC5)c([N+](=O)[O-])c4)c(Oc4cnc5[nH]ccc5c4)c3)CC2)=C(c2ccc(Cl)cc2)C1 [Venetoclax] + CN(C)CCCOc1ccc(-c2ccc3ncc4c(c3c2)n(C2CCOCC2)c(=O)n4C)cn1 [AZD0156] (first compound max 1 µM, 7x7, partner max 1 µM)
Target of assay: KARPAS-231 (B-Cell Non-Hodgkin's Lymphoma)
Readout type: combination Emax
Observed result: 0.816
//
Compound: COc1cccc(OCCCN)c1-c1cc(Nc2cnc(C#N)cn2)n[nH]1 [Prexasertib] + Cc1cc2ncnn2cc1Nc1ncc2c(n1)n(C1CCOCC1)c(=O)n2C [AZD7648] (first compound max 1 µM, 7x7, partner max 10 µM)
Target of assay: KARPAS-231 (B-Cell Non-Hodgkin's Lymphoma)
Readout type: combination Emax
Observed result: 0.984
//
Compound: Cc1cc2ncnn2cc1Nc1ncc2c(n1)n(C1CCOCC1)c(=O)n2C [AZD7648] + CCN(CCO)CCCOc1ccc2c(Nc3cc(CC(=O)Nc4cccc(F)c4)[nH]n3)ncnc2c1 [AZD2811] (first compound max 10 µM, 7x7, partner max 1 µM)
Target of assay: KARPAS-231 (B-Cell Non-Hodgkin's Lymphoma)
Readout type: combination Emax
Observed result: 0.517
